target: human recombinant TYK2 protein (Homo sapiens); construct: purchased Carna Biosciences 08-147; assay: TYK2 Inhibition Assay (HTRF kinase assay); assay type: biochemical; settings: human recombinant TYK2, 11.25 μM ATP substrate solution
Sequence (P29597 871-1187 limits assumed): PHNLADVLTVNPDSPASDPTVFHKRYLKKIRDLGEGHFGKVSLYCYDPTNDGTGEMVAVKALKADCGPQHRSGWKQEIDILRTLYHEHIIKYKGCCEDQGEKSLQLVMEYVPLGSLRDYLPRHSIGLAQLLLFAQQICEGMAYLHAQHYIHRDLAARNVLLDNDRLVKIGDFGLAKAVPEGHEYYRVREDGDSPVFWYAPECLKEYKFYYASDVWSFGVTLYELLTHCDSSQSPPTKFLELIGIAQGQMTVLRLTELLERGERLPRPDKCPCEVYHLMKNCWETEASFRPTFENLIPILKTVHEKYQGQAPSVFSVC
propertyName: IC50 (nM)

{"columns": ["compound", "propertyName", "u", "numericValue"],
 "data": [
  ["Cn1cc(Nc2nccc(N3C[C@]4(C)CN(C(=O)C5CC5)C[C@]4(C)C3)n2)cn1", "IC50", "nM", 125],
  ["Cn1cc(Nc2ncc(Cl)c(N3C[C@@H]4CN(C(=O)c5ccno5)C[C@]4(C)C3)n2)cn1 (racemic)", "IC50", "nM", 0.5]
]}

P = Cc1ncc(CN2C[C@@]3(C)CN(c4nc(Nc5cnn(C)c5)ncc4Cl)C[C@@]3(C)C2)o1
Q = C[C@@]12CN(C(=O)C3CC3)C[C@]1(C)CN(c1nc(Nc3ccc(C(=O)N4CCOCC4)nc3)ncc1Cl)C2
Between these two entries, P and Q , state which has the higher IC50. Your answer should be the label attached to the chosen record.
P
(P: 19 nM, Q: 3.2 nM)

a = CN1CCC(n2cc(Nc3ncc(Cl)c(N4C[C@]5(C)CN(C(=O)C6CC6)C[C@]5(C)C4)n3)cn2)CC1
b = Cn1cc(Nc2ncc(Cl)c(N3C[C@]4(C)CN(C(=O)CC(F)(F)F)C[C@]4(C)C3)n2)cn1
c = Cn1cc(Nc2ncc(Cl)c(N3C[C@]4(C)CN(CCO)C[C@]4(C)C3)n2)cn1
Please put the entries in order of rising IC50. API: response body holds the labels in the requested order.
b, a, c
(b: 0.7 nM, a: 1.2 nM, c: 52 nM)

* * *

target: human recombinant JAK2 protein (Homo sapiens); construct: purchased Carna Biosciences 08-045; assay: JAK2 Inhibition Assay (HTRF kinase assay); type: biochemical; conditions: human recombinant JAK2, 2.5 μM ATP substrate solution
propertyName: IC50 (nM)

For orientation, consider the following solved cases.
{"columns": ["compound", "numericValue"],
 "data": [
  ["Cn1cc(Nc2ncc(Cl)c(N3C[C@]4(C)CN(Cc5ccno5)C[C@]4(C)C3)n2)cn1", 0.1],
  ["CCNC(=O)c1ccc(Nc2nccc(N3C[C@]4(C)CN(C(=O)C5CC5)C[C@]4(C)C3)n2)cc1", 113],
  ["Cn1cc(Nc2ncc(Cl)c(N3C[C@@H]4CN(C(=O)C5CC5(F)F)C[C@]4(C)C3)n2)cn1 (mixture of isomers)", 1.3],
  ["Cn1cc(Nc2ncc(Cl)c(N3C[C@]4(C)CN(C(=O)[C@H]5CC5(F)F)C[C@]4(C)C3)n2)cn1", 10],
  ["C[C@H](O)Cn1cc(Nc2ncc(Cl)c(N3C[C@]4(C)CN(C(=O)C5CC5)C[C@]4(C)C3)n2)cn1", 3.5]
]}

I = C[C@@]12CN(C(=O)C3CC3)C[C@]1(C)CN(c1nc(Nc3cnn(C(F)F)c3)ncc1Cl)C2
II = CCOC(=O)N1C[C@@]2(C)CN(c3ccnc(Nc4cnn(C)c4)n3)C[C@@]2(C)C1
Between these two entries, I and II , state which has the higher IC50. Your answer should be the label attached to the chosen record.
II
(II: 113 nM, I: 4.6 nM)

* * *

target: human recombinant JAK2 protein (Homo sapiens, UniProt O60674); construct: purchased Carna Biosciences 08-045; test: JAK2 Inhibition Assay (HTRF kinase assay); format: biochemical; settings: human recombinant JAK2, 2.5 μM ATP substrate solution
Sequence (O60674 826-1132 limits assumed): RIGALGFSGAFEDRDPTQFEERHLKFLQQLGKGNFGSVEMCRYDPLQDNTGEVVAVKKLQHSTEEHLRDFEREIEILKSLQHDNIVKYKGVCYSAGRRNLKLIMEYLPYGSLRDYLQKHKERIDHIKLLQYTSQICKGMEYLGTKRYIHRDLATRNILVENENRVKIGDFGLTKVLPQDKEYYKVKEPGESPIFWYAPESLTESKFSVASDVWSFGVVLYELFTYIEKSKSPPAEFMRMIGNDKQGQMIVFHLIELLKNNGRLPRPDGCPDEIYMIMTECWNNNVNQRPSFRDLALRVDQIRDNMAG
propertyName: IC50 (nM)

For orientation, consider the following solved cases.
{"columns": ["compound", "measuredOn", "IC50 (nM)"],
 "data": [
  ["C[C@@]12CN(C(=O)C3CC3)C[C@]1(C)CN(c1nc(Nc3cnn(CCO)c3)ncc1F)C2", "human recombinant JAK2 protein (Homo sapiens, UniProt O60674)", 170],
  ["CN1CCC(n2cc(Nc3ncc(Cl)c(N4C[C@]5(C)CN(C(=O)C6CC6)C[C@]5(C)C4)n3)cn2)CC1", "human recombinant JAK2 protein (Homo sapiens, UniProt O60674)", 0.9],
  ["Cc1cnc(Nc2cnn(C)c2)nc1N1C[C@@H]2CN(C(=O)CC#N)C[C@]2(C)C1 (racemic)", "human recombinant JAK2 protein (Homo sapiens, UniProt O60674)", 3.3],
  ["Cc1cnc(Nc2cnn(C)c2)nc1N1C[C@@H]2CN(C(=O)C3CC3)C[C@]2(C)C1 (racemic)", "human recombinant JAK2 protein (Homo sapiens, UniProt O60674)", 17],
  ["Cn1cc(Nc2ncc(F)c(N3C[C@]4(C)CN(C(=O)C5CC5)C[C@]4(C)C3)n2)cn1", "human recombinant JAK2 protein (Homo sapiens, UniProt O60674)", 137],
  ["C[C@@]12CN(C(=O)C3CC3)C[C@]1(C)CN(c1nc(Nc3cn[nH]c3)ncc1Cl)C2", "human recombinant JAK2 protein (Homo sapiens, UniProt O60674)", 3],
  ["C[C@@]12CN(C(=O)CC#N)C[C@]1(C)CN(c1nc(Nc3cnn(CCO)c3)ncc1Cl)C2", "human recombinant JAK2 protein (Homo sapiens, UniProt O60674)", 0.4],
  ["Cn1cc(Nc2ncc(Cl)c(N3C[C@]4(C)CN(Cc5ncn(C)n5)C[C@]4(C)C3)n2)cn1", "human recombinant JAK2 protein (Homo sapiens, UniProt O60674)", 136]
]}

a = Cc1cnc(Nc2cnn(C)c2)nc1N1C[C@]2(C)CN(C(=O)[C@@H]3CC3(F)F)C[C@]2(C)C1
b = Cc1cc(CN2C[C@@]3(C)CN(c4nc(Nc5cnn(C)c5)ncc4Cl)C[C@@]3(C)C2)on1
c = Cn1cc(Nc2ncc(Cl)c(N3C[C@]4(C)CN(c5ccccn5)C[C@]4(C)C3)n2)cn1
d = Cn1cc(Nc2ncc(Cl)c(N3C[C@@H]4CN(C(=O)[C@@H]5CC5(F)F)C[C@]4(C)C3)n2)cn1
// ranking: key=IC50, reverse=True API: response body holds the labels in the requested order.
b, a, c, d
(b: 7.6 nM, a: 2.5 nM, c: 0.9 nM, d: 0.6 nM)

* * *

biological target: human recombinant JAK2 protein (Homo sapiens); construct: purchased Carna Biosciences 08-045; experiment: JAK2 Inhibition Assay (HTRF kinase assay); type: biochemical; settings: human recombinant JAK2, 2.5 μM ATP substrate solution
propertyName: IC50 (nM)

{"columns": ["compound", "propertyName", "numericValue"],
 "data": [
  ["Cc1ncc(CN2C[C@@]3(C)CN(c4nc(Nc5cnn(C)c5)ncc4Cl)C[C@@]3(C)C2)o1", "IC50", 16]
]}

I = Cn1cc(Nc2ncc(Cl)c(N3C[C@H]4CN(C(=O)CC#N)C[C@]4(C)C3)n2)cn1 (racemic)
II = Cc1cc(Nc2ncc(Cl)c(N3C[C@]4(C)CN(C(=O)C5CC5)C[C@]4(C)C3)n2)no1
III = C[C@@]12CN(C(=O)C3CC3)C[C@]1(C)CN(c1nc(Nc3cc[nH]n3)ncc1Cl)C2
// ranking: key=IC50, reverse=True API: response body holds the labels in the requested order.
II, III, I

* * *

biological target: human recombinant TYK2 protein (Homo sapiens); construct: purchased Carna Biosciences 08-147; assay: TYK2 Inhibition Assay (HTRF kinase assay); format: biochemical; details: human recombinant TYK2, 11.25 μM ATP substrate solution
propertyName: IC50 (nM)

{"columns": ["compound", "measuredOn", "IC50 [nM]"],
 "data": [
  ["C[C@H](O)Cn1cc(Nc2ncc(Cl)c(N3C[C@]4(C)CN(C(=O)C5CC5)C[C@]4(C)C3)n2)cn1", "human recombinant TYK2 protein (Homo sapiens)", 1.6],
  ["Cn1cc(Nc2ncc(Cl)c(N3C[C@@]4(C)CN(CC#N)C(=O)[C@@]4(C)C3)n2)cn1 (racemic)", "human recombinant TYK2 protein (Homo sapiens)", 1.1],
  ["Cn1cc(Nc2ncc(Cl)c(N3C[C@]4(C)CN(Cc5ncn(C)n5)C[C@]4(C)C3)n2)cn1", "human recombinant TYK2 protein (Homo sapiens)", 30]
]}

P = Cn1cc(Nc2nccc(N3C[C@]4(C)CN(C(=O)C5CC5(F)F)C[C@]4(C)C3)n2)cn1 (stereo partly drawn)
Q = Cn1cc(Nc2ncc(Cl)c(N3C[C@@H]4CN(C(=O)CC(F)(F)F)C[C@]4(C)C3)n2)cn1 (racemic)
Could you check which of P and Q has a smaller value for IC50? Your answer should be the label attached to the chosen record.
Q
(Q: 1.4 nM, P: 75 nM)

I = Cn1cc(Nc2ncc(Cl)c(N3C[C@@H]4CN(C(=O)CC#N)C[C@]4(C)C3)n2)cn1 (racemic) [Compound 63]
II = Cn1cc(Nc2ncc(Cl)c(N3C[C@]4(C)CN(C(=O)CC#N)C[C@]4(C)C3)n2)cn1
Could you check which of I and II has a smaller value for IC50? Your answer should be the label attached to the chosen record.
I

I = Cc1cnc(Nc2cnn(C)c2)nc1N1C[C@]2(C)CN(C(=O)[C@@H]3CC3(F)F)C[C@]2(C)C1
II = Cn1cc(Nc2ncc(Cl)c(N3C[C@]4(C)CN(C(=O)C5CNC5)C[C@]4(C)C3)n2)cn1
III = C[C@@]12CN(C(=O)C3CC3)C[C@]1(C)CN(c1nc(Nc3cnn(CCO)c3)ncc1Cl)C2
IV = C[C@@]12CN(C(=O)C3CC3)C[C@]1(C)CN(c1nc(Nc3cn[nH]c3)ncc1Cl)C2
V = C[C@@]12CN(C(=O)C3CC3)C[C@]1(C)CN(c1ccnc(Nc3ccc(C(=O)O)cc3)n1)C2
// ranking: key=IC50, reverse=True API: response body holds the labels in the requested order.
V, II, I, IV, III

P = Cn1cc(Nc2ncc(Cl)c(N3C[C@]4(C)CN(C(=O)CO)C[C@]4(C)C3)n2)cn1
Q = Cn1cc(Nc2nccc(N3C[C@@H]4CN(Cc5ccno5)C[C@]4(C)C3)n2)cn1 (relative stereo)
Could you check which of P and Q has a smaller value for IC50? Your answer should be the label attached to the chosen record.
P

1 = C[C@@]12CN(C(=O)CC#N)C[C@]1(C)CN(c1nc(Nc3cnn(CCO)c3)ncc1Cl)C2
2 = Cn1cc(Nc2ncc(Cl)c(N3C[C@]4(C)CN(C(=O)C5COC5)C[C@]4(C)C3)n2)cn1
Could you check which of 1 and 2 has a smaller value for IC50? Your answer should be the label attached to the chosen record.
1

I = Cn1cc(Nc2ncc(Cl)c(N3C[C@@H]4CN(Cc5ccno5)C[C@]4(C)C3)n2)cn1 (racemic)
II = Cn1cc(Nc2ncc(Cl)c(N3C[C@]4(C)CN(c5ccncn5)C[C@]4(C)C3)n2)cn1
III = Cn1cc(Nc2ncc(F)c(N3C[C@]4(C)CN(C(=O)C5CC5)C[C@]4(C)C3)n2)cn1
Please put the entries in order of rising IC50. API: response body holds the labels in the requested order.
II, I, III

1 = C[C@@]12CN(C(=O)C3CC3)C[C@]1(C)CN(c1nc(Nc3cnn(C(F)F)c3)ncc1Cl)C2
2 = Cn1cc(Nc2ncc(C#N)c(N3C[C@]4(C)CN(C(=O)C5CC5)C[C@]4(C)C3)n2)cn1
Between these two entries, 1 and 2 , state which has the higher IC50. Your answer should be the label attached to the chosen record.
2
(2: 186 nM, 1: 1.4 nM)

a = Cn1cc(Nc2ncc(Cl)c(N3C[C@H]4CN(C(=O)CC#N)C[C@@]4(C)C3)n2)cn1
b = Cc1cnc(Nc2cnn(C)c2)nc1N1C[C@@H]2CN(C(=O)CC#N)C[C@]2(C)C1 (racemic)
Could you check which of a and b has a smaller value for IC50? Your answer should be the label attached to the chosen record.
b

Recorded values, source patent US12448382B2.
